- System: Puccinia recondita f. sp. tritici
- method.summary: Test I: wheat leaf rust on wheat seedlings, sprayed the day before inoculation, visual disease rating
- Format: in vivo
- run.parameters: 200 ppm; 100 = 100% disease control, 0 = no control
property.label: Test I disease control rating (%)
Supply the numeric figure in %, leaving out any unit text.

State Test I disease control rating (Puccinia recondita f. sp. tritici) of Cc1ccc(-n2cnc(Cl)c2-c2ccc(F)cc2Cl)cc1 . 99

Find Test I disease control rating for COc1cc(F)c(-c2c(C)nc(Cl)n2-c2ccc(Cl)nc2)c(F)c1 on Puccinia recondita f. sp. tritici and write it down. 100

Check Puccinia recondita f. sp. tritici data and give Test I disease control rating for COc1ccc(F)c(-c2c(Cl)nc(Cl)n2-c2cccc(F)c2)c1F . 100

---

- Test system: Septoria nodorum
- method.summary: Test F: wheat glume blotch on wheat seedlings, sprayed the day before inoculation, visual disease rating
- Assay type: in vivo
- run.parameters: 200 ppm; 100 = 100% disease control, 0 = no control
- Excerpt: General protocol for preparing test suspensions for Tests A-J: The test compounds were first dissolved in acetone in an amount equal to 3% of the final volume and then suspended at the desired concentration (in ppm) in acetone and purified water (50/50 mix) containing 250 ppm of the surfactant Trem® 014 (polyhydric alcohol esters). […]
property.label: Test F disease control rating (%)
Give the number; % is assumed, so skip it.

Please supply the value of reported Test F disease control rating for the item Cc1ncn(-c2ccc(Cl)c(F)c2)c1-c1cccnc1 [compound 252] 0

Give the reported value of Test F disease control rating for this record: Cc1nc(Cl)c(-c2ccc(Cl)cc2)n1Cc1cccc(Cl)c1 [compound 295] 0

Hello, please tell me recorded Test F disease control rating for this one: Clc1ccc(-c2c(Cl)ncn2Cc2cccc(Cl)c2)cc1 [compound 272] 0

Supply measured Test F disease control rating of COc1cc(F)c(-c2c(C)ncn2-c2ccccn2)c(F)c1 [compound 250] in your reply. 0

Give the reported value of Test F disease control rating for this record: COc1cc(F)c(-c2c(Cl)nc(C)n2Cc2ccc(Cl)cc2)c(F)c1 [compound 287] 99

Please supply the value of reported Test F disease control rating for the item Fc1ccc(-n2cnc(Cl)c2-c2c(F)cccc2Cl)cc1 [compound 180] 0

Report Test F disease control rating for COc1ccc(F)c(-c2c(Cl)nc(Cl)n2Cc2ccc(Cl)cc2)c1F [compound 288] 73

In one line, give reported Test F disease control rating of the entry Fc1ccc(F)c(-c2c(Cl)nc(Cl)n2-c2ccc(Cl)c(Cl)c2)c1F [compound 234] . 0

Please report Test F disease control rating for the following compound: Cc1nc(Cl)n(-c2ccc(Cl)c(F)c2)c1-c1c(Cl)cncc1Cl [compound 262] 69

Consider the compound COc1ccc(F)c(-c2c(Cl)nc(Br)n2Cc2ccc(Cl)cc2)c1F [compound 289] . State its measured Test F disease control rating. 0

---

Assignment: determine reported Test H disease control rating for the given molecules.
- System: Puccinia recondita f. sp. tritici
- method.summary: Test H: wheat leaf rust, test suspension sprayed after inoculation of wheat seedlings, visual disease rating
- Assay type: in vivo
- run.parameters: 200 ppm; 100 = 100% disease control, 0 = no control relative to controls
- Description: General protocol for preparing test suspensions for Tests A-J: The test compounds were first dissolved in acetone in an amount equal to 3% of the final volume and then suspended at the desired concentration (in ppm) in acetone and purified water (50/50 mix) containing 250 ppm of the surfactant Trem® 014 (polyhydric alcohol esters). […]
# value in %; strip the unit string

Read off the recorded Test H disease control rating for COc1cc(OC)cc(-n2c(C)nc(Br)c2Cc2c(F)cc(F)cc2F)c1 0

Identify measured Test H disease control rating corresponding to Cc1ncc(Cc2c(F)cc(F)cc2F)n1-c1ccc(Cl)cc1 0

Query Test H disease control rating for Cc1nc(Cl)n(-c2ccc(Cl)cn2)c1-c1c(F)cccc1F 83

Tell us which Test H disease control rating value is on record for COc1ccc(F)c(-c2c(Cl)nc(C)n2-c2ccc(Cl)cc2)c1Cl 0

Quickly give me recorded Test H disease control rating for Cc1nc(Cl)n(-c2ccc(Cl)nc2)c1-c1c(F)ccc(C#N)c1F 100

Give Test H disease control rating for the following molecule: Fc1cc(-n2cnc(Br)c2-c2c(F)ccc(F)c2F)ccc1Cl 0

Entry COc1cc(F)c(-c2c(Cl)nc(Br)n2-c2cccc(Cl)c2)c(F)c1 needs its Test H disease control rating filled in; supply it. 32

Quick one: give measured Test H disease control rating for COc1cc(OC)c(Cl)c(-n2cnc(Br)c2-c2ccc(Cl)cc2F)c1 100

# return recorded Test H disease control rating for input Fc1cc(-n2c(Cl)nc(Cl)c2-c2ccnc(Br)c2)ccc1Cl 0

Return reported Test H disease control rating. Input molecule: COc1cc(OC)c(Br)c(-n2c(C)nc(Br)c2Cc2ccc(F)cc2F)c1Br 0

Return reported Test H disease control rating. Input molecule: COc1cc(C#N)cc(F)c1-c1c(Cl)nc(Cl)n1-c1ccc(Cl)c(F)c1 0

Write down Test H disease control rating measured for item COc1cc(F)c(-c2c(Br)nnn2-c2ccc(Cl)cc2)c(F)c1 40

Return value of Test H disease control rating for input COc1ccc(Cl)c(-c2c(Cl)nc(Cl)n2-c2ccc(Cl)cc2)c1F , no commentary. 0

Look up and report measured Test H disease control rating for this entry: CCOc1ccc(F)c(-c2c(Cl)nc(Br)n2-c2ccc(Cl)cc2)c1F 0

Consider the molecule COc1ccc(F)c(-c2c(Cl)ncn2-c2ccc(Br)cc2)c1F . State its measured Test H disease control rating. 15

Note Test H disease control rating for the molecule shown: Fc1ccc(-n2cnc(Br)c2-c2c(F)ccc(F)c2Cl)cc1 78

Give recorded Test H disease control rating. COc1cc(F)c(-c2c(Cl)nc(Br)n2-c2cccc(OC(F)(F)F)c2)c(F)c1 0

Report measured Test H disease control rating; entry is COc1cc(F)c(-n2nnc(Br)c2-c2ccc(Cl)cc2)c(F)c1 0

For the molecule Fc1ccc(F)c(-c2c(Br)nc(Br)n2-c2ccc(Cl)cc2)c1Cl , report Test H disease control rating. 0

Given COc1ccc(F)c(-c2c(C)nc(Cl)n2-c2ccc(Cl)cc2)c1F , respond with its Test H disease control rating. 0

Supply reported Test H disease control rating belonging to this molecule: Fc1cc(-n2c(Cl)nc(CCl)c2-c2ccnc(Br)c2)ccc1Cl 0

Assign Test H disease control rating to the following record: COc1cc(F)c(-c2c(Cl)nc(Cl)n2-c2cccc(OC(F)(F)F)c2)c(F)c1 7

Output Test H disease control rating of Cc1nc(Cl)c(-c2c(F)cc(F)cc2F)n1-c1cccc(OC(F)F)c1 100

Quote Test H disease control rating reported for Cc1ncn(-c2ccc(Cl)c(F)c2)c1-c1ccnc(F)c1 please. 6

Give a short answer stating reported Test H disease control rating for COc1ccc(F)c(-c2c(Cl)nc(Br)n2-c2ccc(Cl)c(C)c2)c1F . 0
